biological target: YT521-B YTH domain (Rattus norvegicus, UniProt Q9QY02 347-502); test: ITC; 20 C; 410 uM RNA into 14 uM protein; 25 mM NaH2PO4, 25 mM NaCl, 10 mM beta-mercaptoethanol, pH 7; ITC and NMR titrations at 20 C, structure at 30 C
pKd: −log10 of the molar value.
READOUT_NAME: pKd

INSERT INTO assay_data (binder, recorded_result) VALUES
  ('UGACAC (ssRNA) [5''-UGACAC-3'']', 5.30);
